Each record here notes measured pIC50.
Biological target: Nav1.6 (Homo sapiens, UniProt Q9UQD0)
Sequence (Q9UQD0 whole entry): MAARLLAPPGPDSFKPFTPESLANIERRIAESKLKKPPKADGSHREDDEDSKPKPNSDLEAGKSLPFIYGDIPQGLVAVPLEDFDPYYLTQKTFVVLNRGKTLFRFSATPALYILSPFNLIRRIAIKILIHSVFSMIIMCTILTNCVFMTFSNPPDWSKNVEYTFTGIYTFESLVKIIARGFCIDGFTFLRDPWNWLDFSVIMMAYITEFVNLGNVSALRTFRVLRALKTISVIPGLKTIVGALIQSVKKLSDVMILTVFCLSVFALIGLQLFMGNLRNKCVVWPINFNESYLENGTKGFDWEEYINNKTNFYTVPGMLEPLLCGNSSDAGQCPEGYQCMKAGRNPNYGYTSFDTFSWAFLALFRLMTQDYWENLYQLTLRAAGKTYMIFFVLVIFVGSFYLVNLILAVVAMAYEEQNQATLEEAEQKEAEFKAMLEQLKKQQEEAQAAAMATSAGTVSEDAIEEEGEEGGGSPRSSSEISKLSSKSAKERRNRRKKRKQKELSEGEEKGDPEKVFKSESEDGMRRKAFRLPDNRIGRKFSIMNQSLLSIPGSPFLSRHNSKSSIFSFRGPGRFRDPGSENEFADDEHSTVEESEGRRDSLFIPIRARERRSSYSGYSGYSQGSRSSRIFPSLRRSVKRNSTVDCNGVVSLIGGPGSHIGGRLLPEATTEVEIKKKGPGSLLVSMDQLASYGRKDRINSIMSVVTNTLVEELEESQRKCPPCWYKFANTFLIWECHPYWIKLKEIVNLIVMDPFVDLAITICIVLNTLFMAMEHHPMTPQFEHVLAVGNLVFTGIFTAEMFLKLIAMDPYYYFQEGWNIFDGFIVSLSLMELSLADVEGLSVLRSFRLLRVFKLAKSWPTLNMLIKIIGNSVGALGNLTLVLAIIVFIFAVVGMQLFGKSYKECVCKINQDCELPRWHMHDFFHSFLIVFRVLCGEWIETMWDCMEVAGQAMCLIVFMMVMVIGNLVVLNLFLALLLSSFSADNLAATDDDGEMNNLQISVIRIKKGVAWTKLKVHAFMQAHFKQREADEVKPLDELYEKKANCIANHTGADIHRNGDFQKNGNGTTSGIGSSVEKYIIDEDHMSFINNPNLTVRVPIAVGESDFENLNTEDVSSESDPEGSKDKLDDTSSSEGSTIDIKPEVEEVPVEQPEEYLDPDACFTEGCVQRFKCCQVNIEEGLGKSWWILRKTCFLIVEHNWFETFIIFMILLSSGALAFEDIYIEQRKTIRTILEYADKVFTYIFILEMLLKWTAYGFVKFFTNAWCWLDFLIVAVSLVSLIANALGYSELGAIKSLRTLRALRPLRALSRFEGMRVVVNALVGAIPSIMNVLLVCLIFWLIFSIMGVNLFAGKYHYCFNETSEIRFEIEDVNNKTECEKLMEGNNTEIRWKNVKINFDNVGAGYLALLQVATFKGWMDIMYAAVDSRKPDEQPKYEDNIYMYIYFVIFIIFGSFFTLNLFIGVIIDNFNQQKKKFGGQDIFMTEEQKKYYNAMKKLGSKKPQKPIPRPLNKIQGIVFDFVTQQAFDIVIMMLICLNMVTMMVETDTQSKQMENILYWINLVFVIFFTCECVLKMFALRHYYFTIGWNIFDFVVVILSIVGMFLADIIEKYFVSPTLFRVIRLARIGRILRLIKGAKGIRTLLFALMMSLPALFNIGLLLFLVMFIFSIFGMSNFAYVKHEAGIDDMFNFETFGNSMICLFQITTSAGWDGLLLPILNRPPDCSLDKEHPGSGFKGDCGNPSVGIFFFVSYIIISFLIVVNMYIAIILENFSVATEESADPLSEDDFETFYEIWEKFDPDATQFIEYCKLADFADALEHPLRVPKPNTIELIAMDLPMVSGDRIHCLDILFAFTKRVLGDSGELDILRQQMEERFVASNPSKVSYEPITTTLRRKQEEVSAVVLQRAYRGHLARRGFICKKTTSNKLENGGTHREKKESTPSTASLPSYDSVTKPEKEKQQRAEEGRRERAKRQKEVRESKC
Assay: Nav two-pulse protocol, IonWorks Quattro electrophysiology
Assay type: cell-based
Details: -120 mV to 0 mV, compound incubated 300 s, read-out: Nav1.6 Tonic
pIC50: −log10 of the molar value.

- compound: "O=C(NCc1ccccn1)C1CCN(Cc2cccc(Oc3cccc(F)c3)c2)C1 (stereo not drawn) [Compound 11]"
  pIC50: "4.70 to 5.00"
- compound: "CC(C)C[S+]([O-])c1cccc(CN2CCC(C(=O)NCc3ccccn3)C2)c1 (stereo not drawn) [Compound 42]"
  pIC50: "< 4.70"
- compound: "Cc1cccc(Oc2cccc(CN3CCC(C(=O)NCc4ccccn4)C3)c2)c1 (stereo not drawn) [Compound 43]"
  pIC50: "< 4.70"
- compound: "Cc1cccc(CNC(=O)C2CCN(Cc3cccc(Oc4ccccc4)c3)C2)c1 (stereo not drawn) [Compound 82]"
  pIC50: "4.70 to 5.00"

Proceed to the following item.
Entry O=C(NCc1ccc(OC(F)F)cc1)C1CCN(Cc2cccc(Oc3ccccc3)c2)C1 (stereo not drawn) [Compound 96] needs its pIC50 filled in; supply it.
< 4.70

All figures here come from patent US9676757B2.
